IC50 reference
# tested_target: 5-hydroxytryptamine receptor 1A (Homo sapiens)
# Sequence (P08908 whole entry): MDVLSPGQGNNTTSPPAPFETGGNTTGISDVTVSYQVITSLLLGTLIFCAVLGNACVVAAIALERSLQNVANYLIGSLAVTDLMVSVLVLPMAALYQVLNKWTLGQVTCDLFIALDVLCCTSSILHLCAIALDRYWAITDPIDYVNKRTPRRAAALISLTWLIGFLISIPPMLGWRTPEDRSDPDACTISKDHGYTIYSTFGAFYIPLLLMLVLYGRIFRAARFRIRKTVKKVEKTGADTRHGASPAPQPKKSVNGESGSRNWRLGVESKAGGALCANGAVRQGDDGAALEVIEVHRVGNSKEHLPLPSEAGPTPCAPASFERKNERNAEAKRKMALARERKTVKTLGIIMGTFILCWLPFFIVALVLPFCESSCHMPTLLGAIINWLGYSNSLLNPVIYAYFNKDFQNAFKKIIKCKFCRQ
# assay_overview: Antagonist activity at human 5HT1A expressed in BAF3 cells by fluorimetry analysis

Some solved cases for reference:
molecule | IC50
C=CCc1ccccc1OCC(O)CNCCOCCOCCOCCOCCNC(=O)CCCCCC1(C)C(/C=C/C=C/C=C2/N(CCCS(=O)(=O)O)c3ccc(S(=O)(=O)O)cc3C2(C)C)=[N+](CCCS(=O)(=O)[O-])c2ccc(S(=O)(=O)O)cc21 (configuration not stated) | > 1 µM
CC(C)NCC(O)COc1ccccc1CCCSCC(=O)NCCOCCOCCNC(=O)C1C(C(=O)O)C(C(=O)O)C1C(=O)O (configuration not stated) | > 10 µM
CC(C)NCC(O)COc1ccccc1CCCSCC(=O)NCCOCCOCCN (configuration not stated) | > 10 µM
CC(C)NCC(O)COc1ccccc1CCCSCC(=O)NCCOCCOCCNC(=O)CS(=O)(=O)O (configuration not stated) | > 10 µM
CC(C)NCC(O)COc1ccccc1CCCSCC(=O)NCCOCCOCCNC(=O)CCCCCC1(C)C(/C=C/C=C/C=C2/N(CCCS(=O)(=O)O)c3ccc(S(=O)(=O)O)cc3C2(C)C)=[N+](CCCS(=O)(=O)[O-])c2ccc(S(=O)(=O)O)cc21 (configuration not stated) | > 10 µM
C=CCc1ccccc1OCC(O)CNCCOCCOCCOCCOCCNC(=O)CS(=O)(=O)O (configuration not stated) | > 1 µM
C=CCc1ccccc1OCC(O)CNCCOCCOCCOCCOCCN (configuration not stated) | > 1 µM
C=CCc1ccccc1OCC(O)CNCCOCCOCCOCCOCCNC(=O)C1C(C(=O)O)C(C(=O)O)C1C(=O)O (configuration not stated) | > 1 µM

Item C=CCc1ccccc1OCC(O)CNCCOCCOCCOCCOCCNC(=O)OC(C)(C)C (configuration not stated) was tested on 5-hydroxytryptamine receptor 1A (Homo sapiens); the reported IC50 is > 1 µM

* * *

# tested_target: Bromodomain-containing protein 3 (Homo sapiens, UniProt Q15059)
# Sequence (Q15059 whole entry): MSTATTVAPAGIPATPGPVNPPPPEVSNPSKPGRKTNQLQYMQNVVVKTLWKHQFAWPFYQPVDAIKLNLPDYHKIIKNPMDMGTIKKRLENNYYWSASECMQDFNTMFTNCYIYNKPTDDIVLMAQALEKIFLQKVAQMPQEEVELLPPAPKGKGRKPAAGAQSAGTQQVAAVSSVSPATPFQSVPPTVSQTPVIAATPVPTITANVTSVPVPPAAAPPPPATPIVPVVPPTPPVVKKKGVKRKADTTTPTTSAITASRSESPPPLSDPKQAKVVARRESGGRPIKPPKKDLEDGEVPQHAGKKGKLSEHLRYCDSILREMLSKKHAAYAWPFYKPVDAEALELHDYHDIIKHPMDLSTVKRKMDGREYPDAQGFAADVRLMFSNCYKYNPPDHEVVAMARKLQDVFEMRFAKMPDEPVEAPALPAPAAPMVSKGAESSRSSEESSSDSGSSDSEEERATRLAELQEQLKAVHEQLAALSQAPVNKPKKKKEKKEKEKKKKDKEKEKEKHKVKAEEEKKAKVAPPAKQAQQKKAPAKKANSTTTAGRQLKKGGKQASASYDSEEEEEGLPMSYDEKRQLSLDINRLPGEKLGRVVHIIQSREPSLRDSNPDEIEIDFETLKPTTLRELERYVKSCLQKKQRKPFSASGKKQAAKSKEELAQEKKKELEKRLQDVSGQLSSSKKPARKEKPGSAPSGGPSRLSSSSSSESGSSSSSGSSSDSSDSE
# assay_overview: Inhibition of BRD3 (unknown origin) by TR-FRET assay
pIC50 reference
Reminder that pIC50 means the negative base-10 logarithm of the concentration expressed in mol/L.

Query Cc1sc2c(c1C)C(c1ccc(Cl)cc1)=N[C@@H](CC(=O)NCCOCCOCCNC(=O)C1C(C(=O)O)C(C(=O)O)C1C(=O)O)c1nnc(C)n1-2 (stereo not given in full) yields pIC50 of 6.34

Query `Cc1sc2c(c1C)C(c1ccc(Cl)cc1)=N[C@@H](CC(=O)NCCOCCOCCNC(=O)CS(=O)(=O)O)c1nnc(C)n1-2` yields pIC50 of 7.11

Query `Cc1sc2c(c1C)C(c1ccc(Cl)cc1)=N[C@@H](CC(=O)NCCOCCOCCNC(=O)OC(C)(C)C)c1nnc(C)n1-2` yields pIC50 of 7.38

Query `Cc1sc2c(c1C)C(c1ccc(Cl)cc1)=N[C@@H](CC(=O)NCCOCCOCCN)c1nnc(C)n1-2` yields pIC50 of 8.15

* * *

# tested_target: Histamine H3 receptor (Homo sapiens, UniProt Q9Y5N1)
# Sequence (Q9Y5N1 whole entry): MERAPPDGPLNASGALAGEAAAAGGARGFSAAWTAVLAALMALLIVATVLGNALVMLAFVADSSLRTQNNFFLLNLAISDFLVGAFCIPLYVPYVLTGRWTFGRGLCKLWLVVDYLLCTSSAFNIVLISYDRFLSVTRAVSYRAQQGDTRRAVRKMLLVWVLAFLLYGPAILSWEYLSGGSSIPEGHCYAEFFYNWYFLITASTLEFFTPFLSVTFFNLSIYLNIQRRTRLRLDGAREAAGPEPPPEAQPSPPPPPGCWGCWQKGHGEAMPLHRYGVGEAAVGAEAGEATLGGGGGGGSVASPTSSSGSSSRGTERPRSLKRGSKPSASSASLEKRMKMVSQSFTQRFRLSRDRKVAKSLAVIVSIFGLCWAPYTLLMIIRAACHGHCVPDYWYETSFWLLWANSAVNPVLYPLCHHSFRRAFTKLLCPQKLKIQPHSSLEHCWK
# assay_overview: Displacement of [3H]Nalpha-methylhistamine from recombinant human histamine H3 receptor after 60 mins by scintillation counting method
property_measured: pKi
Reminder that pKi means the negative base-10 logarithm of the concentration expressed in mol/L.

Some solved cases for reference:
molecule | tested_target | property_measured | numeric_readout
Cc1nn(CCOCCOCCNC(=O)CS(=O)(=O)O)cc1-c1ccc2cc(CCN3CCC[C@H]3C)ccc2n1 | Histamine H3 receptor (Homo sapiens, UniProt Q9Y5N1) | pKi | 8.25
Cc1nn(CCOCCOCCN)cc1-c1ccc2cc(CCN3CCC[C@H]3C)ccc2n1 | Histamine H3 receptor (Homo sapiens, UniProt Q9Y5N1) | pKi | 9.15
Cc1nn(CCOCCOCCNC(=O)OC(C)(C)C)cc1-c1ccc2cc(CCN3CCC[C@H]3C)ccc2n1 | Histamine H3 receptor (Homo sapiens, UniProt Q9Y5N1) | pKi | 8.82
Cc1nn(CCOCCOCCNC(=O)C2C(C(=O)O)C(C(=O)O)C2C(=O)O)cc1-c1ccc2cc(CCN3CCC[C@H]3C)ccc2n1 (stereo not given in full) | Histamine H3 receptor (Homo sapiens, UniProt Q9Y5N1) | pKi | 7.60

Now consider the entry below.
Query Cc1nn(CCOCCOCCNC(=O)CCCCCC2(C)C(/C=C/C=C/C=C3/N(CCCS(=O)(=O)O)c4ccc(S(=O)(=O)O)cc4C3(C)C)=[N+](CCCS(=O)(=O)[O-])c3ccc(S(=O)(=O)O)cc32)cc1-c1ccc2cc(CCN3CCC[C@H]3C)ccc2n1 (stereo not given in full) yields pKi of 8.72

* * *

# tested_target: Bromodomain-containing protein 4 (Homo sapiens, UniProt O60885)
# assay_overview: Inhibition of BRD4 (unknown origin) by TR-FRET assay
property_measured: IC50

molecule | tested_target | result
Cc1sc2c(c1C)C(c1ccc(Cl)cc1)=N[C@@H](CC(=O)NCCOCCOCCNC(=O)C1C(C(=O)O)C(C(=O)O)C1C(=O)O)c1nnc(C)n1-2 (stereo not given in full) | Bromodomain-containing protein 4 (Homo sapiens, UniProt O60885) | > 10 µM
Cc1sc2c(c1C)C(c1ccc(Cl)cc1)=N[C@@H](CC(=O)NCCOCCOCCNC(=O)OC(C)(C)C)c1nnc(C)n1-2 | Bromodomain-containing protein 4 (Homo sapiens, UniProt O60885) | 0.526 µM
Cc1sc2c(c1C)C(c1ccc(Cl)cc1)=N[C@@H](CC(=O)NCCOCCOCCNC(=O)CS(=O)(=O)O)c1nnc(C)n1-2 | Bromodomain-containing protein 4 (Homo sapiens, UniProt O60885) | > 10 µM
Cc1sc2c(c1C)C(c1ccc(Cl)cc1)=N[C@@H](CC(=O)NCCOCCOCCNC(=O)CCCCCC1(C)C(/C=C/C=C/C=C3/N(CCCS(=O)(=O)O)c4ccc(S(=O)(=O)O)cc4C3(C)C)=[N+](CCCS(=O)(=O)[O-])c3ccc(S(=O)(=O)O)cc31)c1nnc(C)n1-2 (stereo not given in full) | Bromodomain-containing protein 4 (Homo sapiens, UniProt O60885) | 9.11 µM

Now consider the entry below.
Query `Cc1sc2c(c1C)C(c1ccc(Cl)cc1)=N[C@@H](CC(=O)NCCOCCOCCN)c1nnc(C)n1-2` yields IC50 of 2.48 µM

* * *

# tested_target: Beta-2 adrenergic receptor (Homo sapiens, UniProt P07550)
# Sequence (P07550 whole entry): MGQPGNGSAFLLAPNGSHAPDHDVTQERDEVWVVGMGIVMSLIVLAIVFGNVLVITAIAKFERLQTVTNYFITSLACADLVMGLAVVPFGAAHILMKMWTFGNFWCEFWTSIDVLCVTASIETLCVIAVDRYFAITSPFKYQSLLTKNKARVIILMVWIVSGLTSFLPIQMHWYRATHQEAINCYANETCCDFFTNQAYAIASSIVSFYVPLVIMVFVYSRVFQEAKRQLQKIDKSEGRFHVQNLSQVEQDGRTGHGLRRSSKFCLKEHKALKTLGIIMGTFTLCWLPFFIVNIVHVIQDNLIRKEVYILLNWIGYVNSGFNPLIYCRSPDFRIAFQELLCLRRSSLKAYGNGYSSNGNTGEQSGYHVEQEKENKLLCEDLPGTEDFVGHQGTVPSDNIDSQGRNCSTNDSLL
# assay_overview: Antagonist activity at human recombinant beta2 adrenoreceptor expressed in CHOK1 cells incubated for 30 mins by HTRF
property_measured: IC50 (nM)
Quick note: give the figure in nM, leave out the unit.

Some solved cases for reference:
molecule | IC50 / nM
CC(C)NCC(O)COc1ccccc1CCCSCC(=O)NCCOCCOCCNC(=O)CCCCCC1(C)C(/C=C/C=C/C=C2/N(CCCS(=O)(=O)O)c3ccc(S(=O)(=O)O)cc3C2(C)C)=[N+](CCCS(=O)(=O)[O-])c2ccc(S(=O)(=O)O)cc21 (stereo unspecified) | 96
C=CCc1ccccc1OCC(O)CNCCOCCOCCOCCOCCNC(=O)OC(C)(C)C (stereo unspecified) | 6.9
C=CCc1ccccc1OCC(O)CNCCOCCOCCOCCOCCN (stereo unspecified) | 100
CC(C)NCC(O)COc1ccccc1CCCSCC(=O)NCCOCCOCCNC(=O)CS(=O)(=O)O (stereo unspecified) | 86
CC(C)NCC(O)COc1ccccc1CCCSCC(=O)NCCOCCOCCN (stereo unspecified) | 19
C=CCc1ccccc1OCC(O)CNCCOCCOCCOCCOCCNC(=O)CCCCCC1(C)C(/C=C/C=C/C=C2/N(CCCS(=O)(=O)O)c3ccc(S(=O)(=O)O)cc3C2(C)C)=[N+](CCCS(=O)(=O)[O-])c2ccc(S(=O)(=O)O)cc21 (stereo unspecified) | 500
C=CCc1ccccc1OCC(O)CNCCOCCOCCOCCOCCNC(=O)CS(=O)(=O)O (stereo unspecified) | 83.4
CC(C)NCC(O)COc1ccccc1CCCSCC(=O)NCCOCCOCCNC(=O)OC(C)(C)C (stereo unspecified) | 22
COC(=O)CSCCCc1ccccc1OCC(O)CNC(C)C (stereo unspecified) | 72

Query CC(C)NCC(O)COc1ccccc1CCCSCC(=O)NCCOCCOCCNC(=O)C1C(C(=O)O)C(C(=O)O)C1C(=O)O (stereo unspecified) yields IC50 of 380
